Tested on: HCT-116 colon
Assay: NCI tumour cell line growth inhibition, 48 h
Listing of entries alongside the reported TGI.
MEASUREMENT_NAME: TGI

1. COC(=O)C1(C(=O)OC)C/C(C)=C(/C)SCCCS1 | > 100 µM
2. Cc1cc(C)c(C[C@H]2COC(=O)[C@]2(O)Cc2c(C)cc(C)cc2C)c(C)c1 | 43 µM
3. CN(C)CC1CCC/C(=C\c2ccc(Cl)cc2)C1=O (stereo not drawn) | 3.55 µM
4. COc1cc(C(=O)N2CCN(c3ncccn3)CC2)c(N)cc1OCc1ccccc1 | > 100 µM
5. O=c1oc2ccccc2cc1-c1cn2ccccc2n1 | 30.1 µM
6. CC(=O)O/C(=C1\C[C@H]2[C@@H]3CC=C4C[C@@H](OC(C)=O)CC[C@]4(C)[C@H]3CC[C@]2(C)C1=O)C(F)(F)F | 18.8 µM
7. Cc1nn(C(=O)Cc2ccccc2)c2c1C(c1ccc(Cl)cc1)SC(N)=N2 (stereo not drawn) | > 100 µM
8. O=P1(c2ccccc2)CCCCC1 | > 100 µM
9. [N-]=[N+]=Nc1cc(=O)[nH]nc1-c1ccccc1 | > 100 µM
10. Cc1cc(NS(=O)(=O)c2ccc(Nc3c4ccccc4nc4c(C(=O)N5CCN(CCO)CC5)ccc(Cl)c34)cc2)no1 | > 100 µM
11. CC(C)(S)C(N)C(=O)O (stereo not drawn) | > 5000 µM
12. Cc1cc2c(cc1C)C(=O)C1(C2)Cc2c(C)ccc(C)c2C1=O (stereo not drawn) | > 100 µM
13. Nc1nc(NCC2(CO)CC2)cc(=O)[nH]1 | > 100 µM
14. O=C(Nc1nncs1)NS(=O)(=O)n1c(=S)sc2ccccc21 | > 100 µM
15. COC(=O)c1c(C#N)[nH]c(-c2ccsc2)c1C(=O)OC | > 100 µM
16. Nc1nc(Cl)c(N)c(NCC2(CO)CCCC2)n1 | > 100 µM
17. N#Cc1c(N/N=C/c2ccc(Cl)cc2Cl)nc(N)nc1N1CCCC1 | > 100 µM
18. O=C(O)c1ccc(OCc2ccccc2)c(Cl)c1 | > 100 µM

###

Listing of entries alongside the reported TGI.
System: A549 NSCLC
Assay: NCI tumour cell line growth inhibition, 48 h
MEASUREMENT_NAME: TGI (µM)

1. CN(C)CC1CCC/C(=C\c2ccc(Cl)cc2)C1=O (stereo not given) | 32.4
2. O=[N+]([O-])/C(C(Cl)=C(Cl)Cl)=C(/Nc1ccccc1)SCc1ccccc1 | 33.5

###

Test system: SK-MEL-28 melanoma
Experiment: NCI tumour cell line growth inhibition, 48 h
Listing of entries alongside the reported TGI.
MEASUREMENT_NAME: TGI

1. CC(C)N(C(=O)C1(O)c2ccccc2C=Cc2ccccc21)C(C)C | 31.4 µM
2. N#Cc1c(N/N=C/c2ccc(Cl)cc2Cl)nc(N)nc1N1CCCC1 | > 100 µM
3. CC1=C(C(=O)Nc2ccc(Cl)c(Cl)c2)C(c2cccc(Oc3ccccc3)c2)NC(=O)N1 (stereo not given) | 33.2 µM
4. O=c1oc2ccccc2cc1-c1cn2ccccc2n1 | 17.7 µM
5. CCC1CCc2c(c(=O)oc3c2cc(OC)c2cccc(OC)c23)C1 (stereo not given) | > 100 µM
6. O=C(/C=C/c1ccc(OCc2cccc(Cl)c2)cc1)NO | > 100 µM
7. CC1=NC(=Cc2cc(Br)cc(Br)c2)C(=O)N1n1c(-c2ccccc2)nc2ccccc2c1=O | > 100 µM
8. Cc1cc(C2CC(O)C(CO)O2)c(F)cc1F (stereo not given) | > 100 µM
9. Cc1nc2ccc(NC(=S)Nc3ccccc3)cc2c(=O)n1-c1ccccc1 | > 100 µM
10. Cc1cc(C)nc(NS(=O)(=O)c2ccc(NC(=O)c3cccc4c(Nc5ccc(S(N)(=O)=O)cc5)c5ccccc5nc34)cc2)n1 | > 29.3 µM
